Tested on: HCT-15 colon
measurementProtocol: NCI-60 one-dose screen, 48 h
condition: 10 µM unless noted
This is part of a sample that, as a whole, favours compounds with a hit. Of some 83,000 tested, about 20% had one in any assay. Activity calls are given as the source filed them. The calls were made as follows: active = growth percent below 10; inactive = the rest.
Reply using exactly one outcome from Yes (active), No (inactive)

Field: example entries. Status: answers known.
INSERT INTO assay_data (compound, classlabel) VALUES
  ('CC(C)(C)c1ccc(C(=O)Nc2sc3c(c2C#N)CCC(=O)C3)cc1', 'Yes'),
  ('CC(=O)Oc1ccccc1C(=O)N(Cc1ccc2c(Cl)cc(Cl)c(O)c2n1)c1ccccc1', 'No'),
  ('CCOC(=O)c1cc(C(=O)c2cc(OC)cc(OC)c2)n2ncccc12', 'No'),
  ('CCCCCN(CCCCC)CC(O)c1c(Cl)ccc2ccccc12 (configuration not stated)', 'No'),
  ('CCCCC/C=C/CCC(=O)N[C@H]1[C@H](Oc2c3cc4cc2Oc2ccc(cc2Cl)[C@@H](O[C@@H]2O[C@H](CO)[C@@H](O)[C@H](O)[C@H]2NC(C)=O)[C@@H]2NC(=O)[C@H](NC(=O)[C@@H]4NC(=O)[C@H]4NC(=O)[C@@H](Cc5ccc(c(Cl)c5)O3)NC(=O)[C@@H](N)c3ccc(O)c(c3)Oc3cc(O)cc4c3)c3ccc(O)c(c3)-c3c(O[C@H]4O[C@H](CO)[C@@H](O)[C@H](O)[C@@H]4O)cc(O)cc3[C@H](C(=O)O)NC2=O)O[C@H](CO)[C@H](O)[C@@H]1O', 'No');

**Query** I would be grateful if you could indicate the recorded call for COc1cc(C(=O)n2nc(NCCCc3ccccc3)c3cc(N)ccc32)cc(OC)c1OC .
**Result** No

**Query** Repeat with O=C(Nc1ccc2c(c1)-c1ccccc1C2)C1CC(=O)N(c2ccc3c(c2)OCO3)C1 (configuration not stated)
**Result** No

**Query** Repeat with CC(CN)[C@@H]1CC[C@]2(CO)CC[C@]3(C)[C@H](CC[C@@H]4[C@@]5(C)CCC(NCCO)C(C)(C)[C@@H]5CC[C@]43C)[C@@H]12 (some centres not stated)
**Result** No
